# assay method text: Water solubility by pH-metric method (pSOL model 3)
# Format: physicochemical
# experimental parameters: water, pH 7.4, aqueous buffer, thermodynamic from solid
reported metric: solubility (µg/mL)

{"columns": ["compound", "solubility [µg/mL]"],
 "data": [
  ["O=C(C=C1NCC2c3ccccc3CCN2C1=O)C1CCC1 (stereo not drawn) [Compound 2c]", 170],
  ["O=C(/C=C1\\NCC2c3ccccc3CCN2C1=O)c1cccc(F)c1 (stereo not drawn) [Compound 2]", 22],
  ["O=C(C=C1NCC2c3ccccc3CCN2C1=O)c1cccc(NC(=O)N2CCOCC2)c1 (stereo not drawn) [Compound 1e]", 46],
  ["O=C(C=C1NCC2CCCCN2C1=O)c1ccccc1 (stereo not drawn) [Compound 3a]", 530]
]}

I = O=C(C=C1NCC2CCCCN2C1=O)c1ccco1 (stereo not drawn) [Compound 3g]
II = O=C(C=C1NCC2CCCCN2C1=O)c1cccc(F)c1 (stereo not drawn) [Compound 3b]
Incoming: Short answer wanted: higher solubility, I or II ? Let me know the label of the one you choose.
Outgoing: I

----------
# System: antioxidant response element (ARE)
# assay method text: ARE luciferase reporter assay in HepG2-ARE-C8 cells
# Format: cell-based
# experimental parameters: 5 μM, HepG2-ARE-C8, 12 h of treatment, mean ± SD n = 3; read-out: ARE Inductivity in Luciferase Reporter Assay (induction fold)
reported metric: fold induction at 5 µM
Form: value (number only, do not type unit).

{"columns": ["compound", "value"],
 "data": [
  ["O=C(C=C1NCC2c3ccccc3CCN2C1=O)c1cccc(NC(=O)N2CCOCC2)c1 (centres unmarked) [Compound 1e]", 4.53],
  ["O=C(C=C1NCC2CCCCN2C1=O)c1cccs1 (centres unmarked) [Compound 3h]", 8.3],
  ["O=C(C=C1NCC2c3ccccc3CCN2C1=O)C1CC1 (centres unmarked) [Compound 2b]", 4.85]
]}

// sample O=C(C=C1NCC2CCCCN2C1=O)c1cccc2ccccc12 (centres unmarked) [Compound 3j] , its fold induction at 5 µM was 2.54

----------
# Test system: antioxidant response element (ARE)
# assay method text: ARE luciferase reporter assay in HepG2-ARE-C8 cells
# Format: cell-based
# experimental parameters: 0.1 μM, HepG2-ARE-C8, 12 h of treatment, mean ± SD n = 3; read-out: ARE Inductivity in Luciferase Reporter Assay (induction fold)
Recorded fold induction at 0.1 µM, one value per entry.
Number, no unit, nothing else.

{"columns": ["compound", "reported metric", "value"],
 "data": [
  ["O=C(C=C1NCC2CCCCN2C1=O)c1ccc(-c2ccccc2)cc1 (stereo not shown) [Compound 3f]", "fold induction at 0.1 µM", 2.96],
  ["CC(=O)Nc1cccc(C(=O)C=C2NCC3c4ccccc4CCN3C2=O)c1 (stereo not shown) [Compound 1c]", "fold induction at 0.1 µM", 0.8],
  ["O=C(C=C1NCC2c3ccccc3CCN2C1=O)c1cccc(NC(=O)N2CCOCC2)c1 (stereo not shown) [Compound 1e]", "fold induction at 0.1 µM", 1.57],
  ["O=C(C=C1NCC2c3ccccc3CCN2C1=O)c1c[nH]c2ccccc12 (stereo not shown) [Compound 2g]", "fold induction at 0.1 µM", 1.27],
  ["O=C(C=C1NCC2c3ccccc3CCN2C1=O)C1CCCC1 (stereo not shown) [Compound 2d]", "fold induction at 0.1 µM", 1.06]
]}

Entry O=C(C=C1NCC2CCCCN2C1=O)c1cccc(F)c1 (stereo not shown) [Compound 3b] — recorded fold induction at 0.1 µM = 0.7

// recorded fold induction at 0.1 µM for O=C(C=C1NCC2c3ccccc3CCN2C1=O)C1=CCCCC1 (stereo not shown) [Compound 2f] : 3.27

Measured fold induction at 0.1 µM of O=C(C=C1NCC2c3ccccc3CCN2C1=O)c1cnc2ccccc2c1 (stereo not shown) [Compound 2h] : 2.06
